// endpoint Ki / system 5-hydroxytryptamine receptor 2A (Rattus norvegicus, UniProt P14842)
measurement-kind: Ki (nM)

COc1ccccc1N1CCN(CCCOc2ccc3c(C)cc(=O)oc3c2)CC1; 174

A. COc1cc(=O)oc2cc(OCCCN3CCN(c4ccccc4)CC3)ccc12
B. COc1cc(=O)oc2cc(OCCCN3CCN(c4ncccn4)CC3)ccc12
// pick larger Ki from pair: A vs B Pick one and reply with its label.
A
(A: 1950 nM, B: 138 nM)

----------
tested-system: UniProtKB P61169
Sequence (P61169 whole entry): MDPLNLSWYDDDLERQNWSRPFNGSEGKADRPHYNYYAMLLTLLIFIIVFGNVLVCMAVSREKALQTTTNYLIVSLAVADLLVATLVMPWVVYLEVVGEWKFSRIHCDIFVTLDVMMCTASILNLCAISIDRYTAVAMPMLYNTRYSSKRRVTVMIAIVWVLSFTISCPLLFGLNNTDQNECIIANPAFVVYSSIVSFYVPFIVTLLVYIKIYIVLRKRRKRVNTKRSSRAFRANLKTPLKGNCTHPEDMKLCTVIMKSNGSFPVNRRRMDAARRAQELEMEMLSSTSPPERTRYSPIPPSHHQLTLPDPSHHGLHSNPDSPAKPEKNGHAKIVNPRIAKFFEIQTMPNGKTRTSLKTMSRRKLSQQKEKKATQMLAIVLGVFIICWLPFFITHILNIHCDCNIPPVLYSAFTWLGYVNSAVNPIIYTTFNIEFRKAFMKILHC
assay-overview: Binding affinity towards Dopamine receptor D2 in rat […] using [3H]spiperone
pKi: −log10 of the molar value.
measurement-kind: pKi

Consider the worked cases shown below.
COc1cc(=O)oc2cc(OCCCN3CCN(c4ncccn4)CC3)ccc12; 7.32
COc1ccccc1N1CCN(CCCOc2ccc3c(OC)cc(=O)oc3c2)CC1; 7.75

a. COc1ccccc1N1CCN(CCCOc2ccc3c(C)cc(=O)oc3c2)CC1
b. Cc1cc(=O)oc2cc(OCCCN3CCN(c4ccccn4)CC3)ccc12
// pick larger pKi from pair: a vs b Pick one and reply with its label.
a
(a: 7.93, b: 7.09)

1. Cc1cc(=O)oc2cc(OCCCN3CCN(c4ccccc4)CC3)ccc12
2. COc1cc(=O)oc2cc(OCCCN3CCN(c4ccccc4)CC3)ccc12
Looking at 1 and 2 , which one comes out lower in pKi terms? Pick one and reply with its label.
2
(2: 6.25, 1: 7.34)

a. Cc1cc(=O)oc2cc(OCCCN3CCN(c4ncccn4)CC3)ccc12
b. COc1cc(=O)oc2cc(OCCCN3CCN(c4ccccn4)CC3)ccc12
Looking at a and b , which one comes out lower in pKi terms? Pick one and reply with its label.
a

Origin of the recorded values: ChEMBL document CHEMBL1145876
